TEST DETAILS: blockers of mitochondrial fusion, WT vs mutant – cell-based, chemical genetic, wild-type and mutant, confirmation (AID 1361)
ASSAY SETUP: Cell-based mitochondrial fusion phenotype, imaging, WT cells
Calls of active or inactive are those of the source. No rule for the calls is given here.
Response enum: yes for active, no for inactive

>  <COMPOUND>
Cc1c(N(C(=O)Nc2ccccc2)C2=NCC(C)S2)c(=O)n(-c2ccccc2)n1C (configuration not stated)

>  <DISCRETE LABEL>
no

$$$$
>  <COMPOUND>
COc1ccc2ccc3c(c2c1)N=CC1(O3)N(C)c2ccccc2C1(C)C (configuration not stated)

>  <DISCRETE LABEL>
yes

$$$$

Recorded test call requested for `CCc1ccc2ncc(S(=O)(=O)c3ccc(C)c(C)c3)c(N3CCCC3)c2c1`
yes

Per the assay record, what outcome was assigned to Cc1nn(C(C)C(=O)NCC2CCCO2)c(=O)c2cc3occc3n12 (configuration not stated) ?
no

Hi, do you know how `O/N=C(\c1ccc(Cl)cc1Cl)c1ncc(C(F)(F)F)cc1Cl` came out in this test?
yes

Assay outcome for CCC(C)c1ccc(NC(=O)COc2c(F)c(F)c(C(F)(F)F)c(F)c2F)cc1 (configuration not stated) : what was it?
yes

Test call, this compound: `Clc1ccccc1Cn1c(/C=C/c2ccco2)nc2ccccc21`
yes

Per the records of this test, what outcome belongs to CCCOP(=O)(OCCC)C(Nc1cccc(C(F)(F)F)c1)c1ccc(C)cc1 (configuration not stated) ?
yes

The reported numbers originate from PubChem BioAssay AID1361.
